Property: normalized growth; scope: individual compounds
experiment: chemical genetic growth profiling, strain panel (AID 1159580);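 further: tested at 20 µM; growth read once vehicle control cultures reached saturation at 30 °C; 1 = growth at the plate median or of vehicle wells; lower values mean less growth of the strain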; settings: S. cerevisiae deletion strains, growth OD, locus YHR200W, strain rpn10, stronger effect = lower value
Screen size: about 5,500 compounds; about 2,000 (36%) were called active. Roughly 18% stayed inconclusive and do not appear here. This is one part of the list.

Compound	normalized growth
CCN1C[C@]2(C)CC[C@H](OC)[C@]34C2[C@H](O)[C@]2(OCO[C@@]25C[C@H](OC)[C@H]2C[C@]3(O)C5[C@H]2O)C14	1
COc1ccccc1/C=C\C(=O)O	1.01
CC1O[C@@H](Oc2c(-c3ccc(O)c(O)c3)oc3cc(O)cc(O)c3c2=O)[C@H](O)[C@H](O)[C@H]1O (stereo partly drawn)	0.986
C=C[C@H]1CN2CC[C@H]1C[C@@H]2[C@@H](OC(=O)OCC)c1ccnc2ccc(OC)cc12	1.02
COc1ccc(-c2cc(=O)c3c(O)cc(O[C@@H]4O[C@H](CO[C@H]5O[C@H](C)[C@@H](O)[C@H](O)[C@@H]5O)[C@@H](O)[C@H](O)[C@H]4O)cc3o2)cc1O	0.989
O=c1c(O)c(-c2ccc(O)cc2O)oc2cc(O)cc(O)c12	0.994
O=c1c(O)c(-c2ccc(O)c(O)c2)oc2cc(O)cc(O)c12	0.941
O=c1cc(-c2ccc(O)cc2)oc2cc(O[C@@H]3O[C@H](CO)[C@@H](O)[C@H](O)[C@H]3O)cc(O)c12	0.957

* * *

assay: chemical genetic growth profiling, strain panel (AID 1159580);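 further: tested at 20 µM; growth read once vehicle control cultures reached saturation at 30 °C; 1 = growth at the plate median or of vehicle wells; lower values mean less growth of the strain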; conditions: S. cerevisiae deletion strains, growth OD, locus YNL307C, strain MCK1, stronger effect = lower value
About 2,000 (36%) of roughly 5,500 compounds were called active. Roughly 18% stayed inconclusive and do not appear here. The list shows a part of the results.
Property: normalized growth; scope: individual compounds

Compound	normalized growth
O=C(OC1Cc2c(O)cc(O)cc2OC1c1cc(=O)c(O)c2c(O)c(O)cc(C3Oc4cc(O)cc(O)c4CC3O)c2c1)c1cc(O)c(O)c(O)c1 (stereo not drawn)	0.93
CCN(Cc1ccncc1)C(=O)C(CO)c1ccccc1 (stereo not drawn)	0.994
O=C(Cc1cccs1)NC1C(=O)N2C(C(=O)[O-])=C(C[n+]3ccccc3)CSC12 (stereo not drawn)	0.991
NC(=O)NCC(N)C(=O)O (stereo not drawn)	0.991
CC[n+]1c(-c2ccccc2)c2cc(N)ccc2c2ccc(N)cc21	0.855
O=C1C=C2C(=CCOC2O)O1 (stereo not drawn)	0.748
O=c1c(O)c(-c2cc(O)c(O)c(O)c2)oc2cc(O)cc(O)c12	1.02
CCCCOc1cc(C(=O)NCCN(CC)CC)c2ccccc2n1	0.984
CCC1OC(=O)[C@H](C)C(=O)[C@H](C)[C@@H](OC2O[C@H](C)C[C@H](N(C)C)[C@H]2O)[C@](C)(OC)C2(CCCn3cnc(-c4cccnc4)c3)C[C@@H](C)C(=O)[C@H](C)[C@H]3N(C2)C(=O)O[C@]13C (stereo partly drawn)	1.01
Cc1cc(C2CCCCC2)n(O)c(=O)c1	0.0688
O=C(O[C@@H]1Cc2c(O)cc(O)cc2O[C@@H]1c1cc(O)c(=O)c2c(O)c(O)cc([C@H]3Oc4cc(O)cc(O)c4C[C@H]3OC(=O)c3cc(O)c(O)c(O)c3)c2c1)c1cc(O)c(O)c(O)c1	1.04
CN[C@@H]1C(O)[C@@H](O[C@@H]2[C@@H](O)[C@H](O[C@H]3OC(CN)=CC[C@H]3N)[C@@H](N)C[C@H]2N)OC[C@]1(C)O (stereo partly drawn)	0.999
O=c1c(O)c(-c2ccc(O)c(O)c2)oc2cc(O)cc(O)c12	0.948
NC(CSCSCC(N)C(=O)O)C(=O)O (stereo not drawn)	0.987
CC(=O)O[C@@H]1CC2C(C)(C)C(=O)C=C[C@]2(C)C2CC[C@@]3(C)[C@H](c4ccoc4)OC(=O)[C@H]4O[C@]43[C@@]21C (stereo partly drawn)	0.989
CC1(C)C2CC(=O)[C@]3(C)C(CC[C@@]4(C)[C@H](c5ccoc5)OC(=O)C5OC543)[C@@]2(C)[C@@H](O)C[C@H]1O (stereo partly drawn)	0.987
CCCCCCCCCCCC1=C(O)C(=O)C=C(O)C1=O	0.857
COC(=O)C[C@H]1C(C)(C)C2(Cl)O[C@@]34CC2C(=O)[C@]1(C)C3CC[C@]1(C)C4=CC(=O)O[C@H]1c1ccoc1 (stereo partly drawn)	0.991
OCC(O)C(O)C(O)C(O)C(O)CO (stereo not drawn)	0.992
CC1(C)C(=O)C=C[C@@]2(C)C1C[C@@H](O)[C@]1(C)C2CC[C@@]2(C)[C@H](c3ccoc3)OC(=O)[C@H]3O[C@]321 (stereo partly drawn)	0.989
CCCCCCCCCCCCCCCCCC(=O)OC(CC(=O)O)C[N+](C)(C)C (stereo not drawn)	0.0704
O=c1cc(-c2ccc(O)cc2)oc2cc(O[C@@H]3O[C@H](CO)[C@@H](O)[C@H](O)[C@H]3O)cc(O)c12	0.973
O=C(O[C@@H]1Cc2c(O)cc(O)cc2O[C@@H]1c1cc(O)c(=O)c2c(O)c(O)cc([C@H]3Oc4cc(O)cc(O)c4C[C@H]3O)c2c1)c1cc(O)c(O)c(O)c1	1.01
CC(=O)O[C@@H]1CC(=O)[C@@]2(C)C(CC(=O)[C@]3(C)C2CC[C@@]2(C)[C@H](c4ccoc4)OC(=O)C4OC423)C1(C)C (stereo partly drawn)	1.03
NC(=O)CN1CCCC1=O	1.03
COc1ccc(-c2cc(=O)c3c(O)cc(O[C@H]4O[C@H](CO[C@@H]5O[C@@H](C)[C@H](O)[C@@H](O)[C@H]5O)[C@@H](O)[C@H](O)[C@H]4O)cc3o2)cc1	1.02
CC1(C)C2CC(=O)[C@]3(C)C(CC[C@@]4(C)[C@H](c5ccoc5)OC(=O)[C@H]5O[C@]543)[C@@]2(C)C(=O)C[C@H]1O (stereo partly drawn)	1.02
O=c1c(O)c(-c2ccc(O)cc2O)oc2cc(O)cc(O)c12	1.02
CC(=O)OC(C)C[N+](C)(C)C (stereo not drawn)	1.03
COc1ccc(-c2cc(=O)c3c(O)cc(O[C@@H]4O[C@H](CO[C@H]5O[C@H](C)[C@@H](O)[C@H](O)[C@@H]5O)[C@@H](O)[C@H](O)[C@H]4O)cc3o2)cc1O	1
COc1cc(OC)c2c(=O)c(OC)c(-c3ccc(OC)c(OC)c3)oc2c1	1.01
COc1ccc(-c2oc3cc(O[C@H]4O[C@H](CO)[C@@H](O)[C@H](O)[C@H]4O)c(OC)c(O)c3c(=O)c2OC)cc1O	0.928
CC1(C)C=CC(=O)[C@@]2(C)C1CC(=O)[C@]1(C)C2CC[C@@]2(C)[C@H](c3ccoc3)OC(=O)C3OC321 (stereo partly drawn)	0.961

* * *

assay: chemical genetic growth profiling, strain panel (AID 1159580);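 further: tested at 20 µM; growth read once vehicle control cultures reached saturation at 30 °C; 1 = growth at the plate median or of vehicle wells; lower values mean less growth of the strain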; details: S. cerevisiae deletion strains, growth OD, locus YDL185W, strain tfp1
The whole screen tested about 5,500 compounds, of which about 2,000 (36%) were called active. About 18% were inconclusive and are not listed. Cut-off read from the data, not from the text of the source: active = normalized growth mostly below about 0.91 (no sharp cut-off); inconclusive = no clear call, values can overlap the other calls; inactive = mostly above about 0.92. The list shows a part of the results.
Possible outcomes: true (1) for active, false (0) for inactive

Compound	Class
COc1ccc(-c2oc3cc(O[C@H]4O[C@H](CO)[C@@H](O)[C@H](O)[C@H]4O)c(OC)c(O)c3c(=O)c2OC)cc1O	false (0)
COc1ccc(-c2cc(=O)c3c(O)cc(O[C@@H]4O[C@H](CO[C@H]5O[C@H](C)[C@@H](O)[C@H](O)[C@@H]5O)[C@@H](O)[C@H](O)[C@H]4O)cc3o2)cc1O	false (0)
O=c1c(O)c(-c2ccc(O)cc2O)oc2cc(O)cc(O)c12	false (0)
C[C@@H]1O[C@@H](OC[C@H]2OC(Oc3c(-c4ccc(O)c(O)c4)oc4cc(O)cc(O)c4c3=O)[C@H](O)[C@@H](O)[C@@H]2O)[C@H](O)[C@H](O)[C@H]1O (some centres undefined)	false (0)
CC(C)c1c(O)ccc2c1CCC1C(C)(C)CCC[C@]21C (some centres undefined)	true (1)
CC(C)c1c(O)c(-c2cc3c(c(C(C)C)c2O)CCC2C(C)(C)CCC[C@]32C)cc2c1CCC1C(C)(C)CCC[C@]21C (some centres undefined)	false (0)
C[C@]12CCC3c4ccc(O)cc4CCC3C1CC[C@@H]2O (some centres undefined)	false (0)
CC1O[C@@H](Oc2c(-c3ccc(O)c(O)c3)oc3cc(O)cc(O)c3c2=O)[C@H](O)[C@H](O)[C@H]1O (some centres undefined)	false (0)
COc1ccc2c(c1C(C)C)CCC1C(C)(C)C(=O)CCC21C (centres undefined)	false (0)

* * *

assay: chemical genetic growth profiling, strain panel (AID 1159580);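 further: tested at 20 µM; growth read once vehicle control cultures reached saturation at 30 °C; 1 = growth at the plate median or of vehicle wells; lower values mean less growth of the strain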; conditions: S. cerevisiae deletion strains, growth OD, locus YMR058W, strain fet3, stronger effect = lower value
In all, about 5,500 compounds went through this assay and about 2,000 (36%) were called active. Inconclusive results (about 18%) are left out. The list shows a part of the results.
Property: normalized growth; scope: individual compounds
Attribute measured: normalized growth

Compound	Readout number
COc1ccccc1/C=C\C(=O)O	0.999
CC(C)c1c(O)ccc2c1CCC1[C@@](C)(C=O)CCC[C@]21C (stereo partly specified)	0.991
CC1(C)C(=O)C=C[C@@]2(C)C1C[C@@H](O)[C@]1(C)C2CC[C@@]2(C)[C@H](c3ccoc3)OC(=O)[C@H]3O[C@]321 (stereo partly specified)	0.996
CC1(C)C(=O)C=C[C@@]2(C)C1CC(=O)[C@]1(C)C2CC[C@@]2(C)[C@H](c3ccoc3)OC(=O)[C@H]3O[C@]321 (stereo partly specified)	1
C=C(C)[C@H]1COc2cc3oc(=O)ccc3cc2O1	0.838
CCc1cc(C(N)=S)ccn1	1.01
O=C(O[C@@H]1Cc2c(O)cc(O)cc2O[C@@H]1c1cc(O)c(=O)c2c(O)c(O)cc([C@H]3Oc4cc(O)cc(O)c4C[C@H]3OC(=O)c3cc(O)c(O)c(O)c3)c2c1)c1cc(O)c(O)c(O)c1	0.101
CCN[C@@H]1C[C@H](N)[C@@H](O[C@H]2OC(CN)=CC[C@H]2N)[C@H](O)[C@H]1OC1OC[C@](C)(O)[C@H](NC)[C@H]1O (stereo partly specified)	0.986
CC(=O)[C@@]1(O)CCC2C3C[C@H](C)C4=CC(=O)C=CC4(C)[C@@]3(F)[C@@H](O)C[C@@]21C (stereo partly specified)	0.983
CNC(=O)Oc1cccc2c1OC(C)(C)O2	0.999
C[C@@H]1CC[C@@]2(OC1)OC1CC3C4CC=C5C[C@@H](O)CC[C@]5(C)C4CC[C@]3(C)C1[C@@H]2C (stereo partly specified)	1
CN[C@@H]1[C@@H](O)C(OC2[C@@H](N)C[C@@H](N)[C@H](O[C@H]3O[C@H](C(C)O)[C@@H](O)[C@H](O)[C@H]3N)[C@H]2O)OC[C@]1(C)O (stereo partly specified)	0.985
C[C@@H]1CC[C@@]2(OC1)O[C@H]1CC3C4CC[C@H]5C[C@@H](O)CC[C@]5(C)C4CC[C@]3(C)[C@H]1[C@@H]2C (stereo partly specified)	0.996
CN[C@@H]1C(O)[C@@H](O[C@@H]2[C@@H](O)[C@H](O[C@H]3OC(CN)=CC[C@H]3N)[C@@H](N)C[C@H]2N)OC[C@]1(C)O (stereo partly specified)	1.03
O=C(Cc1cccs1)NC1C(=O)N2C(C(=O)[O-])=C(C[n+]3ccccc3)CSC12 (stereo unspecified)	0.984
CC(=O)Oc1ccc2c(c1C(C)C)CCC1C(C)(C)CCC[C@]21C (stereo partly specified)	1.03
CN1C[C@H](C(=O)N[C@]2(C)O[C@@]3(O)[C@@H]4CCCN4C(=O)[C@H](Cc4ccccc4)N3C2=O)C[C@@H]2c3cccc4[nH]cc(c34)C[C@H]21	0.965
CC(C)N(CCC(C(N)=O)(c1ccccc1)c1ccccn1)C(C)C (stereo unspecified)	0.0623
Cc1[nH]ccc2c1[nH]c1cc(=O)ccc12	1
CC(C1OC(C)(C)C(O)C1O)[C@@H]1CC[C@]2(C)C3=CCC4C(C)(C)C(=O)CC[C@]4(C)C3CC[C@@]12C (stereo partly specified)	0.978
CCCCC1C(=O)N(c2ccccc2)N(c2ccc(O)cc2)C1=O (stereo unspecified)	1
CC1CC[C@]2(NC1)O[C@H]1CC3C4CC[C@H]5C[C@@H](O)CC[C@]5(C)C4CC[C@]3(C)[C@H]1[C@@H]2C (stereo partly specified)	0.113
C=C1CCC2(OC1)OC1CC3C4CC=C5CC(O)CC(O)C5(C)C4CCC3(C)C1C2C (stereo unspecified)	0.959
COc1cccc2c(C)cc(=O)[nH]c12	0.955
O=C1C=C2C(=CCOC2O)O1 (stereo unspecified)	0.328
COC1=CC(=O)C(C(=O)c2ccccc2)=CC1=O	0.966
CC1(C)C=CC(=O)[C@@]2(C)C1CC(=O)[C@]1(C)C2CC[C@@]2(C)[C@H](c3ccoc3)OC(=O)C3OC321 (stereo partly specified)	1.01
Cc1ccccc1OCC(O)CO (stereo unspecified)	0.98
OC1CC2CCCC(C1)N2Cc1ccccc1 (stereo unspecified)	1
CC1CCC2(OC1)OC1CC3C4CC[C@H]5C[C@@H](O)CC[C@]5(C)C4CC(=O)[C@]3(C)C1C2C (stereo partly specified)	1.03
O=c1ccc2cc(OC3OC(CO)C(O)C(O)C3O)c(O)cc2o1 (stereo unspecified)	1
C[C@]12CCC3c4ccc(O)cc4CCC3C1CC[C@@H]2O (stereo partly specified)	0.917
COC(=O)[C@]1(C)CCC[C@]2(C)c3ccc(C(C)C)cc3C(=O)CC12 (stereo partly specified)	0.969
CC(C)c1c(O)ccc2c1CCC1[C@@](C)(CO)CCC[C@]21C (stereo partly specified)	1.02
NC(=O)c1ncn([C@@H]2O[C@H](CO)[C@@H](O)[C@H]2O)n1	0.998
C[C@@H]1CC[C@@]2(NC1)O[C@H]1C[C@H]3C4CC=C5C[C@@H](O)CC[C@]5(C)C4CC[C@]3(C)C1[C@@H]2C (stereo partly specified)	0.0836
